# Test system: human HDAC-1 (Homo sapiens, UniProt Q13547)
# Sequence (Q13547 whole entry): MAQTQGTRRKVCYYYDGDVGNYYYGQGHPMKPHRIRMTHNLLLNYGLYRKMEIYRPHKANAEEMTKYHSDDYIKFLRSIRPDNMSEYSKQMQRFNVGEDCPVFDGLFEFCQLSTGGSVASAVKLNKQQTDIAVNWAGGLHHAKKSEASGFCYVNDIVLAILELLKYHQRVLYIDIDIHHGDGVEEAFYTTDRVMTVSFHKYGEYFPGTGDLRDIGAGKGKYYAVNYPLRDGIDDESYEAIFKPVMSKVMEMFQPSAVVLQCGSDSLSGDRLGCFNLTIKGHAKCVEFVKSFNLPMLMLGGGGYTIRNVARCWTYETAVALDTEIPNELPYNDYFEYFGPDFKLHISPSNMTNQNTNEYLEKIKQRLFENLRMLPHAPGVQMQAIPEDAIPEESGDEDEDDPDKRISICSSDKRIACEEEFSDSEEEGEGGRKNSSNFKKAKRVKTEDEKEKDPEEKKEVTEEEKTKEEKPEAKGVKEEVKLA
# Protocol description: Inhibition of histone deacetylase enzymatic (HDAC-1) activity
# Format: biochemical
# Condition label: Table 6C
pIC50: −log10 of the molar value.
Exercise: for every item that follows, state its recorded pIC50.

Nc1ccc(-c2cccs2)cc1NC(=O)c1ccc(F)cc1 [Compound 143b] has a reported pIC50 of > 6.00

Record Nc1ccc(-c2cccs2)cc1NC(=O)c1ccc(OC(=O)c2ccc(O)cc2)cc1 [258mm] , field pIC50: > 6.00

Measured pIC50 of `Cn1nnc2cc(C(=O)Nc3cc(-c4cccs4)ccc3N)ccc21` : > 6.00

So, `Cc1ccc(S(=O)(=O)Nc2ccc(/C=C/C(=O)Nc3cc(-c4cccs4)ccc3N)cc2)cc1` ? Its pIC50 was > 6.00

`CN1CCN(C(=O)Nc2ccc(C(=O)Nc3cc(-c4cccs4)ccc3N)cc2)CC1` has a reported pIC50 of > 6.00

###

# Test system: human HDAC-1 (Homo sapiens)
# Protocol description: Inhibition of histone deacetylase enzymatic (HDAC-1) activity
# Type: biochemical
# Condition label: Table 6B, comparative data for planar substituent; read-out: HDAC-1 Activity
Kindly state IC50 for each of the entries shown.

The compound COc1cc(NCc2ccc(/C=C/C(=O)Nc3ccccc3N)cc2)cc(OC)c1OC [QQ, reference compound] , tested on human HDAC-1 (Homo sapiens), showed IC50 of 1000 to 20000 nM

// returns IC50 for COc1ccc(NCc2ccc(C(=O)Nc3ccccc3N)cc2)cc1OC [AAA, reference compound] with human HDAC-1 (Homo sapiens); value = < 1000 nM

###

# Test system: UniProt:Q13547
# Protocol description: Inhibition of histone deacetylase enzymatic (HDAC-1) activity
# Format: biochemical
# Condition label: Table 5; Boc-Lys(Ac)-AMC substrate, 37° C., 20 minutes; read-out: HDAC-1 (μM), inhibition of histone deacetylase
Hi there, I'd appreciate the recorded IC50 for every entry that follows.

For `COc1ccc(NCc2ccc(C(=O)Nc3ccc(-c4cccs4)cc3N)cc2)cc1OC` the compound record lists IC50 as 1 to 20 µM

Record `COc1ccc(NCc2ccc(C(=O)Nc3cc(Cl)c(Cl)cc3N)cc2)cc1OC` , field IC50: 1 to 20 µM

The reported IC50 of the compound `COc1ccc(NCc2ccc(C(=O)Nc3ccc(-c4cccs4)cc3[N+](=O)[O-])cc2)cc1OC` was > 20 µM

Memo: `COc1ccc(NCc2ccc(C(=O)Nc3c(N)cccc3N)cc2)cc1OC` , reported IC50: 1 to 20 µM

GET /value?item= `COc1ccc(NCc2ccc(C(=O)Nc3cc(Cl)c(F)cc3N)cc2)cc1OC` &field=IC50 returns 1 to 20 µM

###

# Test system: human HDAC-1 (Homo sapiens)
# Protocol description: Inhibition of histone deacetylase enzymatic (HDAC-1) activity
# Format: biochemical
# Condition label: Table 5; Boc-Lys(Ac)-AMC substrate, 37° C., 20 minutes; read-out: HDAC-1 (μM), inhibition of histone deacetylase
Kindly supply the reported IC50 values for the records listed here.

// recorded IC50 for `COc1cc(CN2CCc3ccc(C(=O)Nc4cc(-c5cccs5)ccc4N)cc32)cc(OC)c1OC` : < 1 µM

Item: `CCCCc1ccc(N)c(NC(=O)c2ccc(C)cc2)c1` | IC50: 1 to 20 µM

For this compound ( `COc1cc(NCc2ccc(/C=C/C(=O)Nc3cc(-c4cccs4)ccc3N)cc2)cc(OC)c1OC` ), measured IC50 is < 1 µM

Summary for this compound, `CCCCc1ccc(N)c(NC(=O)c2ccc(CNc3ccc(OC)c(OC)c3)cc2)c1` : IC50 is 1 to 20 µM

Record `COc1ccc(NCc2ccc(C(=O)Nc3cc(-c4cccs4)ccc3[N+](=O)[O-])cc2)cc1OC` , field IC50: > 20 µM

###

# Test system: human HDAC-1 (Homo sapiens)
# Protocol description: Inhibition of histone deacetylase enzymatic (HDAC-1) activity
# Assay type: biochemical
# Condition label: Table 5; Boc-Lys(Ac)-AMC substrate, 37° C., 20 minutes; read-out: HDAC-1 (μM), inhibition of histone deacetylase
Measurement name: IC50

Record `COc1ccc(NCc2ccc(C(=O)Nc3cc(C#CCO)ccc3N)cc2)cc1OC` / human HDAC-1 (Homo sapiens), IC50 recorded as < 1 µM

Fill in: human HDAC-1 (Homo sapiens) IC50 for `CN(C)CCOc1ccc2nc(SCc3ccc(C(=O)Nc4cc(-c5cccs5)ccc4N)cc3)[nH]c2c1` = < 1 µM

human HDAC-1 (Homo sapiens) IC50 of `COc1ccc(NCc2ccc(C(=O)Nc3ccc(Br)cc3N)cc2)cc1OC` is 1 to 20 µM

`COc1cc(NCc2ccc3oc(C(=O)Nc4cc(-c5cccs5)ccc4N)cc3c2)cc(OC)c1OC` tested on human HDAC-1 (Homo sapiens) gave IC50: < 1 µM

Assay human HDAC-1 (Homo sapiens), sample `COc1ccc(NCc2ccc(C(=O)Nc3cc(/C=C/C(N)=O)ccc3N)cc2)cc1OC` , IC50 read: 1 to 20 µM

###

Assignment: determine reported IC50 for the given compounds.
# Test system: human HDAC-1 (Homo sapiens, UniProt Q13547)
# Protocol description: Inhibition of histone deacetylase enzymatic (HDAC-1) activity
# Assay type: biochemical
# Condition label: Table 6C

Quick note, IC50 for Nc1ccc(-c2cccs2)cc1NC(=O)c1ccsc1 [258nn] landed at < 1000 nM

Given item Nc1ccc(-c2cccs2)cc1NC(=O)c1ccc(Cn2c(=O)[nH]c3ccccc3c2=O)cc1 [compound 349] , the value recorded as its IC50 is < 1000 nM

// Nc1ccc(-c2cccs2)cc1NC(=O)c1ccc(O)cc1 [258pp] : IC50 value = < 1000 nM

// COc1cc(OC)c2cc(C(=O)Nc3cc(-c4cccs4)ccc3N)oc2c1 [Compound 245e] : IC50 value = < 1000 nM

Short answer for Nc1ccc(-c2cccs2)cc1NC(=O)c1ccc(SC(F)(F)F)cc1 [Compound 143c] : IC50 was < 1000 nM
